assay: Pharmacokinetic determination in male Beagle dogs; assay type: in vivo; settings: dog, plasma, IV 0.2 mg/kg, read-out: CL (overall clearance rate) (converted)
READOUT KIND: clearance (mL/min/kg)

[I] COc1ncnc(C2CC2)c1-c1ncc2c3cn(C)nc3n(Cc3ccc(-c4nc(C(F)(F)F)cn4C(C)C)cc3)c2n1 [Compound 88]
[II] COc1ncnc(C2CC2)c1-c1ncc2cnn(Cc3ccc(-c4nc(C(F)(F)F)cn4C(C)C)cc3)c2n1 [KSQ-4279, reference compound]
Q) Of I and II , whose reported clearance is the larger number? Kindly state the label of the option you pick.
A) II

----------
target: recombinant human His6-USP1/His6-UAF1 composite protein (Homo sapiens (Human)); test: USP1 enzyme activity detection (Ub-Rho fluorescence); details: USP1/UAF1, Ub-Rho substrate 300 nM, 1 hour pre-incubation; read-out: IC50 (enzymatic inhibition of USP1)
Sequence (O94782 whole entry): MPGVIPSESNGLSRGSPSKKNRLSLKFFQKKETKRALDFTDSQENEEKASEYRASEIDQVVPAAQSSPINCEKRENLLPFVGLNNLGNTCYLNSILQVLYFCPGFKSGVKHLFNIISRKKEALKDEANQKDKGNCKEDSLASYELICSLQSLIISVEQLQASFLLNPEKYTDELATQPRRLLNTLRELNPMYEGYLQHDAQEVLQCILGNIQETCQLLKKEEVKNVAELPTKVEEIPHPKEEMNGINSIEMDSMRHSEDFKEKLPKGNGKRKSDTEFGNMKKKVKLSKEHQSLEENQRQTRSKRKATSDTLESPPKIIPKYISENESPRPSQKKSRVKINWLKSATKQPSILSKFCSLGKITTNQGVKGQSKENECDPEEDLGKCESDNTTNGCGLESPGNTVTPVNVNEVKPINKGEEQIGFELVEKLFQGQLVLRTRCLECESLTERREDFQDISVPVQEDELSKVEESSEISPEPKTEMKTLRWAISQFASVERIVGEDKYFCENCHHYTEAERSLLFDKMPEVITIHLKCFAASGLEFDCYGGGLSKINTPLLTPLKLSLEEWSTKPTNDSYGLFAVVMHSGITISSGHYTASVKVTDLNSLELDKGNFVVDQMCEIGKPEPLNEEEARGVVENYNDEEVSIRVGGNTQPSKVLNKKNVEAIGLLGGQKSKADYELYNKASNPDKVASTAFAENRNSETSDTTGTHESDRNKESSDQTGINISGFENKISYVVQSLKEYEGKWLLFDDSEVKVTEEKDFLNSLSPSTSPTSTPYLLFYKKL
Sequence (Q8TAF3 whole entry partner): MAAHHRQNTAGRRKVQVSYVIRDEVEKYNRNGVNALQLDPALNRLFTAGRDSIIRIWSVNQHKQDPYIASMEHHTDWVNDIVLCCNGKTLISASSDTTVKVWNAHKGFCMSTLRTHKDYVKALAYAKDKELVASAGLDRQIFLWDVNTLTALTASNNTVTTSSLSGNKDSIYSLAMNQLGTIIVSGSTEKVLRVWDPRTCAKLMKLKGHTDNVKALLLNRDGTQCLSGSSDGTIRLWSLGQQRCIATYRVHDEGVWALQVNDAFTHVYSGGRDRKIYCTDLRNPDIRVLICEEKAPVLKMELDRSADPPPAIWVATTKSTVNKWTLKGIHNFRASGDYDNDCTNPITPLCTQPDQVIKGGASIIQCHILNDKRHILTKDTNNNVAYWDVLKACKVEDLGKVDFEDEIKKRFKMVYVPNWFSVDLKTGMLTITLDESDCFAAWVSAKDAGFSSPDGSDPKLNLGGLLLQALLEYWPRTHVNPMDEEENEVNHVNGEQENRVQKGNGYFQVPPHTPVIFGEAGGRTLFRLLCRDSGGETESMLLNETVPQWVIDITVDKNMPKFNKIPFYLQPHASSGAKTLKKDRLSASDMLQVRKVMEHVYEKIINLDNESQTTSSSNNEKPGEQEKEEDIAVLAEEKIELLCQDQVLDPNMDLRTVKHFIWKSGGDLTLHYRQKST
pIC50: −log10 of the molar value.
READOUT KIND: pIC50

{"MOLECULE": "COc1ncnc(C2CC2)c1-c1ncc2c3cnccc3n(Cc3ccc(-c4nc(C(F)(F)F)cn4C)cc3)c2n1 [Compound 57]", "EXPERIMENTAL RESULT": 7.83}

[a] CCn1cc(C(F)(F)F)nc1-c1ccc(Cn2c3nc(-c4c(OC)ncnc4C4CC4)ncc3c3cccc(F)c32)cc1 [Compound 35]
[b] COc1ncnc(C2CC2)c1-c1ncc2c3cn(C)nc3n(Cc3cc(F)c(-c4nc(C(F)(F)F)c5n4CCC5)c(F)c3)c2n1 [Compound 144]
[c] Cn1cc(C(F)(F)F)nc1-c1ccc(Cn2c3cnccc3c3cnc(-c4cccc5ccn(C)c45)nc32)cc1 [Compound 85]
Q) Arrange the 3 molecules by rising pIC50, starting with the smallest. Answer format: the labels, ordered as requested.
A) c, a, b
(c: 7.13, a: 8.01, b: 8.50)

[1] CCn1cc(C(F)(F)F)nc1-c1ccc(Cn2c3ccccc3c3cnc(-c4c(OC)ncnc4C4CC4)nc32)cc1 [Compound 9]
[2] COc1cc(Cn2c3ccccc3c3cnc(-c4c(OC)ncnc4C4CC4)nc32)ccc1-c1nc(C(F)(F)F)cn1C(C)C [Compound 18]
Q) Sorting ascending by pIC50, which comes first: 1 or 2 ? Kindly state the label of the option you pick.
A) 2
(2: 8.13, 1: 8.39)

Recorded values, source patent US20250368667A1.
